Ref: ChEMBL document CHEMBL4800732

- TARGET OF ASSAY: Sodium-dependent noradrenaline transporter (Homo sapiens, UniProt P23975)
- Sequence (P23975 whole entry): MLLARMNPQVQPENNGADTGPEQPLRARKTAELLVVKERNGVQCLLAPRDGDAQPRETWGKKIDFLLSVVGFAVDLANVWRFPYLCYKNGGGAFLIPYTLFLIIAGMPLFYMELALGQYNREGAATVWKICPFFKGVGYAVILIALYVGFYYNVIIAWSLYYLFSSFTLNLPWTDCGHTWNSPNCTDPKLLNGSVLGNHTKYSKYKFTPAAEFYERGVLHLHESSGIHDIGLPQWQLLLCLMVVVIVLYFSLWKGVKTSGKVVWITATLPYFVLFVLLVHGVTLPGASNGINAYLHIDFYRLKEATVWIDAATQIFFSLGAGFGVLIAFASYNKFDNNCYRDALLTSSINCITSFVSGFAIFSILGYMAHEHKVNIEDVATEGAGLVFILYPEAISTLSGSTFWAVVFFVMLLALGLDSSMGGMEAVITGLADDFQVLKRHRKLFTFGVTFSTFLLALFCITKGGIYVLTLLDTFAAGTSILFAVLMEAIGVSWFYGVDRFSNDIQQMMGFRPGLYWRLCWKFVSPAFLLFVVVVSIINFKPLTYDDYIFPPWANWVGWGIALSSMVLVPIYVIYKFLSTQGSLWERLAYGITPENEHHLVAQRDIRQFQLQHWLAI
- EXPERIMENT: GPCRScan assay: inhibition of NET
- Design: radioligand conc. used [nm] 1.3 – 5.0, parental cells stable HEK
- CONDITION SUMMARY: read-out: Ki
READOUT LABEL: Ki (nM)

[I] CC1CCN(c2ccnc(NCc3cn(C)cn3)n2)CC1 [TP-040]
[II] CN1CCN(c2ccnc(NCCc3ccccc3)n2)CC1 [TP-040n]
Request: I would appreciate it if you could say which entry, I or II , has the lower Ki value. Select an item and report its label.
Response: I
(I: 1940 nM, II: 3110 nM)
